- Assayed Target: T1, pig serum albumin (pig, UniProt P08835 25-607)
- T1 construct: bought protein, amine-coupled to a CM5 chip; also called Pig SA
- Assay Remarks: SPR (Biacore 8K), albumin immobilised, 25 C, 1:1 kinetics
pKd: −log10 of the molar value.

Binder	pKd
INS Analog 29 (other, single-chain insulin B-L2-A-L1-VHH fusion; also called Ex. 29) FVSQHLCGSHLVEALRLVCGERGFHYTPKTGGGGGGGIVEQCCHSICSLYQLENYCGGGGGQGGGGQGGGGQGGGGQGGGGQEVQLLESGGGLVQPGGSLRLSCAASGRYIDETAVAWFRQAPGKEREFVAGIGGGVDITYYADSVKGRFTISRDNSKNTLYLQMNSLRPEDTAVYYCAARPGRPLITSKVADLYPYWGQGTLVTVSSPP	7.07
INS Analog 30 (other, single-chain insulin B-L2-A-L1-VHH fusion; also called Ex. 30) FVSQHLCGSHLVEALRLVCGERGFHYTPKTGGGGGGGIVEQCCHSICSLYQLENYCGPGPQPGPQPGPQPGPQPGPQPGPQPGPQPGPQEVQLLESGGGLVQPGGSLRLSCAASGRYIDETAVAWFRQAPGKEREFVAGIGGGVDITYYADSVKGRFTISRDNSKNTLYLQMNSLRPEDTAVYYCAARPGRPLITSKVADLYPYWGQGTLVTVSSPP	7.10
INS Analog 28 (other, single-chain insulin B-L2-A-L1-VHH fusion; also called Ex. 28) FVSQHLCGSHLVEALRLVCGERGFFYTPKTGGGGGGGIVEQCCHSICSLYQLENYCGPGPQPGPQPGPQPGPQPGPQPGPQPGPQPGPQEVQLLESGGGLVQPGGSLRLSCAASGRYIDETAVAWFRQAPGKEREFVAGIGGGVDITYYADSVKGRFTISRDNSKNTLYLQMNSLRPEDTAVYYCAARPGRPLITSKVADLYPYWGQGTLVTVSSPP	7.12
INS Analog 27 (other, single-chain insulin B-L2-A-L1-VHH fusion; also called Ex. 27) FVSQHLCGSHLVEALRLVCGERGFFYTPKTGGGGGGGIVEQCCHSICSLYQLENYCGGGGGQGGGGQGGGGQGGGGQGGGGQEVQLLESGGGLVQPGGSLRLSCAASGRYIDETAVAWFRQAPGKEREFVAGIGGGVDITYYADSVKGRFTISRDNSKNTLYLQMNSLRPEDTAVYYCAARPGRPLITSKVADLYPYWGQGTLVTVSSPP	7.05
INS Analog 23 (other, single-chain insulin B-L2-A-L1-VHH fusion; also called Ex. 23) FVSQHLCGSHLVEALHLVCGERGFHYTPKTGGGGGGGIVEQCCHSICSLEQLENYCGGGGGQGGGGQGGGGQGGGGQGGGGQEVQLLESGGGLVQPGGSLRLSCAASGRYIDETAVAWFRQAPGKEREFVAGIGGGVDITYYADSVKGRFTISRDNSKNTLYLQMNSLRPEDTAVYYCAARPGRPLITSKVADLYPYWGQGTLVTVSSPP	6.89
INS Analog 26 (other, single-chain insulin B-L2-A-L1-VHH fusion; also called Ex. 26) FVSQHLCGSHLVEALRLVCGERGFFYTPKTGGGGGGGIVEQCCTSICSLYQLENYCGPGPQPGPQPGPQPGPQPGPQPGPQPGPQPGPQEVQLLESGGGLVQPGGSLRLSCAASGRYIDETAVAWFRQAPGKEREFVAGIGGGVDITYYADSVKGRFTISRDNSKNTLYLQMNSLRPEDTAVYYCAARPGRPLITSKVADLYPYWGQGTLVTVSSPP	7.06
INS Analog 25 (other, single-chain insulin B-L2-A-L1-VHH fusion; also called Ex. 25) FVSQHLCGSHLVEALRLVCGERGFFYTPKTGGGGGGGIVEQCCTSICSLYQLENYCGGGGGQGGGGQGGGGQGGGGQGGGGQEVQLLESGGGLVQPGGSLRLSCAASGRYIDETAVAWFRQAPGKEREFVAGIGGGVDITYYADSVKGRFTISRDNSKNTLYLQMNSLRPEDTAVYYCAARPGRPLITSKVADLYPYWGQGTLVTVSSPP	7.05
INS Analog 24 (other, single-chain insulin B-L2-A-L1-VHH fusion; also called Ex. 24) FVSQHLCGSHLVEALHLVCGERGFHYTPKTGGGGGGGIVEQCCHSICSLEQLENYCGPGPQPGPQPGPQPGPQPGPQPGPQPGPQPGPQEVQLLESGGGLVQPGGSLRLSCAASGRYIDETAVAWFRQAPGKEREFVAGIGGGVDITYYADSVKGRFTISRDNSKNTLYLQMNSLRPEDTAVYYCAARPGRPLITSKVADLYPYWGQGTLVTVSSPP	7.00
